The reported measurements were obtained from patent US8618144B2.

measuredOn: human β3 adrenergic receptor (Homo sapiens, UniProt P13945)
Construct: expressed in transfected cells; host or cells: Chinese hamster ovary (CHO) cells, stably transfected
Sequence (P13945 whole entry): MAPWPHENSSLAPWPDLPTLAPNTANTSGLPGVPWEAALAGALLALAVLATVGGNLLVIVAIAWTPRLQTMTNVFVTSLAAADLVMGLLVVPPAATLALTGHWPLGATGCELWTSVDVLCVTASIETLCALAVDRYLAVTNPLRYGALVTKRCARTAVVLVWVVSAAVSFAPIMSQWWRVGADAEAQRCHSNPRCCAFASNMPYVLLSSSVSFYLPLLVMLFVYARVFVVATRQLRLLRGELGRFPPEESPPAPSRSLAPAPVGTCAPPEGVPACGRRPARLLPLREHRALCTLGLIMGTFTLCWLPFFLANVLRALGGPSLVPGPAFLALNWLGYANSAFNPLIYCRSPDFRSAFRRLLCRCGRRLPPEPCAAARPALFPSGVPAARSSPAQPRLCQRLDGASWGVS
assayName: Functional Assay: cAMP production in CHO cells stably transfected with cloned β3-adrenergic receptor (LANCE)
Type: cell-based
settings: CHO cells expressing β3 receptor, read-out: human β3 functional activity (EC50)
pEC50: −log10 of the molar value. Where a name gives a salt, the structure may show the parent alone.
assayEndpoint: pEC50

Nc1ncn(CC(=O)Nc2ccc(C[C@@H]3CC[C@H]([C@H](O)COc4ccccc4)N3)cc2)n1 [Example 15, trifluoroacetate salt]; > 9.00
O=S(=O)(Nc1ccc(C[C@@H]2CC[C@H]([C@H](O)COc3ccccc3)N2)cc1)c1ccc(I)cc1; > 8.00
O=S(=O)(Nc1ccc(C[C@@H]2CC[C@H]([C@H](O)COc3ccccc3)N2)cc1)c1ccc(-c2nc(-c3ccc(C(F)(F)F)cc3)cs2)cc1 [Example 12, trifluoroacetate salt]; > 8.00
CCCCCCNC(=O)Nc1ccc(S(=O)(=O)Nc2ccc(C[C@@H]3CC[C@H]([C@H](O)COc4ccccc4)N3)cc2)cc1 [Example 14, trifluoroacetate salt]; > 9.00
Nc1nc(CC(=O)Nc2ccc(C[C@@H]3CC[C@H]([C@H](O)COc4ccccc4)N3)cc2)cs1 [Example 1, bis-trifluoroacetate salt]; > 9.00

Problem: What does the record list as pEC50 for Nc1nc(CC(=O)Nc2ccc(C[C@H]3CC[C@H]([C@H](O)COc4ccccc4)N3)cc2)cs1 [Example 11, bis trifluoroacetate salt] ?
Solution: 6.00 to 7.00

---

measuredOn: human β3 adrenergic receptor (Homo sapiens, UniProt P13945)
Construct: expressed in transfected cells; host or cells: Chinese hamster ovary (CHO) cells, stably transfected
assayName: Functional Assay: cAMP production in CHO cells stably transfected with cloned β3-adrenergic receptor (LANCE)
Format: cell-based
settings: CHO cells expressing β3 receptor, range classes, read-out: Human β3 EC50
Task for the reader: assign each of the following molecules its reported EC50.

O=C(Cc1nnc(-c2ccccc2)[nH]1)Nc1ccc(C[C@@H]2CC[C@H]([C@H](O)COc3ccccc3)N2)cc1; < 1 nM
Cc1nc(CC(=O)Nc2ccc(C[C@@H]3CC[C@H]([C@H](O)COc4ccccc4)N3)cc2)c(C)s1; 1 to 10 nM

From here, focus on the item given below.
Problem: What does the record list as EC50 for `Cc1csc(CC(=O)Nc2ccc(C[C@@H]3CC[C@H]([C@H](O)COc4ccccc4)N3)cc2)n1` ?
Solution: 1 to 10 nM
